- experiment: Clearance in Sprague-Dawley rat at 1 mg/kg, iv measured for 24 hrs by LC-MS/MS analysis
- Type: ADME, organism-based
- condition.parameters: in vivo
readout.kind: clearance (mL/min/kg)

| compound | readout.kind | recorded.result |
| --- | --- | --- |
| COc1ccc(CN2C3CC2CN(c2ccc(-c4cc(N5CCC(N6CCN(CCCC#Cc7cccc8c7CN(C7CCC(=O)NC7=O)C8=O)CC6)CC5)cn5ncc(C#N)c45)cn2)C3)cn1 (stereo unspecified) | clearance | 52.8 |

---

Below are pIC50 values recorded for Proto-oncogene tyrosine-protein kinase receptor Ret (Homo sapiens).
pIC50: −log10 of the molar value.
readout.kind: pIC50

| compound | readout.kind | recorded.result |
| --- | --- | --- |
| COc1ccc(CN2C3CC2CN(c2ccc(-c4cc(N5CCN(C(=O)CCCCCCCNc6cccc7c6C(=O)N(C6CCC(=O)NC6=O)C7=O)CC5)cn5ncc(C#N)c45)cn2)C3)cn1 (stereo not drawn) | pIC50 | 9.69 |
| COc1ccc(CN2C3CC2CN(c2ccc(-c4cc(N5CCC(N6CCN(CCCC#Cc7cccc8c7CN(C7CCC(=O)NC7=O)C8=O)CC6)CC5)cn5ncc(C#N)c45)cn2)C3)cn1 (stereo not drawn) | pIC50 | 9.43 |
| COc1ccc(CN2C3CC2CN(c2ccc(-c4cc(N5CCN(CC6CN(c7ccc8c(c7)C(=O)N(C7CCC(=O)NC7=O)C8=O)C6)CC5)cn5ncc(C#N)c45)cn2)C3)cn1 (stereo not drawn) | pIC50 | 9.64 |

---

As shown below, each of these molecules has a reported IC50 value.
- Tested on: BaF3
- experiment: Antiproliferative activity against mouse BaF3 cells stably expressing CCDC6-RET G810C mutant incubated for 72 hrs by CCK8 assay
- Type: functional, cell-based
- condition.parameters: BaF3, 72 h
readout.kind: IC50

| molecule | readout.kind | recorded.result |
| --- | --- | --- |
| COc1ccc(CN2C3CC2CN(c2ccc(-c4cc(OCC(C)(C)O)cn5ncc(C#N)c45)cn2)C3)cn1 | IC50 | 626 nM |
| COc1ccc(CN2C3CC2CN(c2ccc(-c4cc(N5CCC(N6CCN(CCCC#Cc7cccc8c7CN(C7CCC(=O)NC7=O)C8=O)CC6)CC5)cn5ncc(C#N)c45)cn2)C3)cn1 (configuration not stated) | IC50 | 6.5 nM |

---

- System: BaF3
- experiment: Antiproliferative activity against mouse BaF3 cells stably expressing KIF5B-RET incubated for 72 hrs by CCK8 assay
- Type: functional, cell-based
- condition.parameters: BaF3, 72 h
pIC50: −log10 of the molar value.
# pIC50 >= 8 gives yes (1), anything below gives no (0)

| molecule | target | category |
| --- | --- | --- |
| COc1ccc(CN2C3CC2CN(c2ccc(-c4cc(N5CCC(N6CCN(CCCC#Cc7ccc8c(c7)C(=O)N(C7CCC(=O)NC7=O)C8=O)CC6)CC5)cn5ncc(C#N)c45)cn2)C3)cn1 (stereo not given) | BaF3 | yes (1) |
| COc1ccc(CN2C3CC2CN(c2ccc(-c4cc(N5CCC(N6CCN(CCCC#Cc7cccc8c7CN(C7CCC(=O)NC7=O)C8=O)CC6)CC5)cn5ncc(C#N)c45)cn2)C3)cn1 (stereo not given) | BaF3 | yes (1) |
| COc1ccc(CN2C3CC2CN(c2ccc(-c4cc(N5CCN(C(=O)CCCCCCCCCCC(=O)N[C@H](C(=O)N6C[C@H](O)C[C@H]6C(=O)N[C@@H](C)c6ccc(-c7scnc7C)cc6)C(C)(C)C)CC5)cn5ncc(C#N)c45)cn2)C3)cn1 | BaF3 | no (0) |
| COc1ccc(CN2C3CC2CN(c2ccc(-c4cc(N5CCC(N6CCN(CCCC#Cc7cccc8c7C(=O)N(C7CCC(=O)NC7=O)C8=O)CC6)CC5)cn5ncc(C#N)c45)cn2)C3)cn1 (stereo not given) | BaF3 | yes (1) |
| COc1ccc(CN2C3CC2CN(c2ccc(-c4cc(N5CCC(N6CCN(C(=O)CCCCCNc7ccc8c(c7)C(=O)N(C7CCC(=O)NC7=O)C8=O)CC6)CC5)cn5ncc(C#N)c45)cn2)C3)cn1 (stereo not given) | BaF3 | yes (1) |

Where do these numbers come from? They come from ChEMBL document CHEMBL6096698.
